- measured_target: hASCT2 (Homo sapiens)
- Construct: expressed in transfected cells; host or cells: HEK293 (ATCC CRL-11268), transient transfection
- Sequence (Q15758 whole entry): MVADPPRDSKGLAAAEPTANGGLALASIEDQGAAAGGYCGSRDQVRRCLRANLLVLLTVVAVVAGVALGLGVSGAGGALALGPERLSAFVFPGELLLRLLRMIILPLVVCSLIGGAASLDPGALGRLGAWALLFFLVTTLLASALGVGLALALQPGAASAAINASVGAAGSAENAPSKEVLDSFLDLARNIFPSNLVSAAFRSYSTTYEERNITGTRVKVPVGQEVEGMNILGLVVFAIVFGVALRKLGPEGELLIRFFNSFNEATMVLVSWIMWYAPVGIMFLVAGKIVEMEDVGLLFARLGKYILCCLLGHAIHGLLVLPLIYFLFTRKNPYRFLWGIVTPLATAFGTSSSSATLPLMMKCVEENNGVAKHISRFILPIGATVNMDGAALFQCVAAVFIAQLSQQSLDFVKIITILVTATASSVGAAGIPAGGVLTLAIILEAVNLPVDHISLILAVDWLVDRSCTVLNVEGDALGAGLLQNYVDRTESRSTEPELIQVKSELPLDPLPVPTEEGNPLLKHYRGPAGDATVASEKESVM
- assay_text: Electrophysiology (whole-cell current recording) of transfected HEK293 cells, hASCT2
- Assay type: cell-based
- test_parameters: apparent Ki in the absence of substrate, HEK293, mean ± SD; read-out: Ki hASCT2
pKi: −log10 of the molar value.
experimental_readout: pKi

A = O=C(O[C@@H]1CN[C@H](C(=O)O)C1)c1ccc(-c2ccccc2)nc1
B = O=C(O)[C@@H]1C[C@H](NCc2ccc(-c3ccccc3)cc2)CN1
C = N[C@@H](COC(=O)c1ccc(NC(=O)c2ccccc2)cc1)C(=O)O
D = O=C(O)[C@@H]1C[C@H](OCc2ccc(-c3ccccc3)cc2)CN1
E = O=C(Nc1cccc(CN[C@@H]2CN[C@H](C(=O)O)C2)c1)c1ccccc1
Output the entries ranked by pKi from maximum down to minimum. Output spec: labels arranged per the requested ranking.
D, B, A, C, E
